Taken from the supplement of paper PMC9170038.

# System: K4 kissing-loop RNA reporter;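 also: bound reporter read as fluorescence of individual clusters on recovered sequencing chips by microscopy, with normalized cluster intensities fitted with a binding model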
# test-description: apparent KD of K4 kissing-loop reporter; higher = weaker reporter binding
# stated-conditions: Eterna round: R107; input ligand: none
We use 200 nM as the dividing line for apparent KD of K4 kissing-loop reporter: on or above the line is 1 (yes), below is 0 (no).

Task: Dear colleague, could you confirm whether GGAGUUACCUGGGAUACCAGUCGGAGUCCCAGAGCUCGGAGUGAUGUUCUGGGAUGUUUCGGCCCUUGGCAGCUCUGGGACUCCC [#2 Exclusion - Theophylline B Attempt #9 (HarryS)] has apparent KD of K4 kissing-loop reporter at or above 200 nM?
Output: 1 (yes)

Task: I'd appreciate it if you could say whether UGUGAUGUUGUGAUGUUUAGUGUUGUUGGGCAGGAUAUUGUAGAGGCGAGAAGGGCUAGUGUGAUGUAUGAGUGAUGUUUGUAGU [kkollmullin] has apparent KD of K4 kissing-loop reporter at least equal to 200 nM.
Output: 1 (yes)

Task: hey, is apparent KD of K4 kissing-loop reporter for this one >= 200 nM? AGUGAUGUGGGAAGGAGCGGUAUAUGAGUUCAGUGAUGUUGAAGUGAUGAUAUAGUGAUGUGCCAGGUAGGUCGCCUAGAUGUUA [KL-XARG-B5]
Output: 1 (yes)

Task: Tell me whether apparent KD of K4 kissing-loop reporter is at least 200 nM here: AGUGAACGAGCGGCCGCCACUAAAUGAGUGAUGUUCGUGAGUAGUGCUGUUCUCAUGAUUGUUUUUAGGACCGGGUUCGAUGUUG [edcclmullin]
Output: 1 (yes)

Task: Does UUUUUGGUUUAGAGUGAUGUUCCUUGUUUUCGAGGACCGGUACGGCCGCCACUCGAAAAGAAAAGAAAAGAAAAGAGUGAUGUUU [BDazzled - #1 SS Tryptophan A] have a reported apparent KD of K4 kissing-loop reporter of at least 200 nM?
Output: 1 (yes)

Task: # bool: apparent KD of K4 kissing-loop reporter of CAUGGAGUGAUGCUCCAUGAUCGGGCUUGGCAGGAUAUGGGAUUUUCCAGAAGGGUCGAUCCCAGCGAGUGAUGUUCGCUGGUCU [Exclusion FMN A GF 26] >= 200 nM
Output: 0 (no)
